assay: growth suppression of yeast trafficking mutant, preliminary HTS, modulators of trafficking downstream of Golgi apparatus project, 1536-format plate, OD 615 nm (AID 637); conditions: yeast transport mutant growth, absorbance 615 nm, 18 h; hits give high values; note: test concentration not given here
I'd appreciate it if you could supply inhibition values for the items below.
The figure you give is taken to be in %; do not add the unit.

Output inhibition of CCOC(=O)C(C(=O)OCC)C(C)C#CCN1CCCCC1 (configuration not stated)
-5.5

Output inhibition of CCn1c(CCNC(=O)c2ccc(OC)c(OC)c2)nc2ccccc21
-2.22

Output inhibition of O=C(NC1CCCC1)C1CCCN(S(=O)(=O)c2cccc3cccnc23)C1 (configuration not stated)
4.33

Output inhibition of O=C(c1ccc(=O)[nH]c1)N(Cc1ccco1)C1(C(=O)NC2CCCC2)CCCCC1
-3.17

Output inhibition of O=C(Cn1cc2c(n1)CCCCC2)N1CCc2ccccc21
-7.87

Output inhibition of CCn1c(SCC(=O)Nc2ccc(Cl)cc2)nnc1C1CC1
1.67

Output inhibition of COc1ccc(-c2nnc(SCC(=O)N3CCOCC3)o2)cc1OC
-6.89

Output inhibition of COC(=O)C1=C(C)NC2=C(C(=O)CCC2)C1c1coc2ccccc2c1=O (configuration not stated)
-1.5

Output inhibition of O=C(O)COc1ccc(S(=O)(=O)NCCc2ccccc2)cc1
2.62

Output inhibition of CC(C)c1ccc(-c2nc(N3CCCCC3)[nH]c(=O)c2C#N)cc1
-3.49

Output inhibition of CCOC(=O)N1CCN(c2cc(=O)n(-c3ccccc3Cl)c(=O)[nH]2)CC1
12.5

Output inhibition of O=C(Nc1nc(-c2ccncc2)cs1)C1COc2ccccc2O1 (configuration not stated)
-8

Output inhibition of O=C(CS(=O)(=O)Cc1ccccc1)Nc1nc2ccccc2s1
0.32

Output inhibition of Cc1c(NC(=O)C2CCCCN2S(=O)(=O)c2ccc(Cl)cc2)c(=O)n(-c2ccccc2)n1C (configuration not stated)
-1

Output inhibition of CCN1CCCC1CNC(=O)c1cc2c(=O)n(C)c3ccccc3c2n1C (configuration not stated)
15.9

Output inhibition of COc1c(C(=O)Nc2c(C)n(C)n(-c3ccccc3)c2=O)ccc2ccccc12
-6.45

Output inhibition of Cc1ccc(CSc2nc3c(c(=O)[nH]2)CCC3)cc1
2.67

Output inhibition of CCN1CCN(C(=O)c2oc(=O)c3ccccc3c2-c2ccc(C)cc2)CC1
5.9

Output inhibition of CCCc1cc(C(=O)Nc2sc3c(c2C#N)CCC3)no1
-4.5

Output inhibition of CCc1ccccc1NC(=O)c1cnc2n(c1=O)CCS2
-4.26

Output inhibition of CC(C)c1ccc(NC(=O)CCNS(=O)(=O)c2cccc3nonc23)cc1
-3.17

Output inhibition of COc1ccc(N(CC(=O)Nc2ccc3c(c2)OCO3)S(=O)(=O)c2c(C)nn(C)c2C)cc1
1
